All values here come from ChEMBL document CHEMBL1641580.

Kindly state CC50 at 48 h for each of the entries shown.
protocol.notes: Cytotoxicity against african green monkey Vero cells after 48 hrs by neutral red assay
Assay type: cell-based
reported.conditions: chlorocebus sabaeus, read-out: TC50

Would you be so kind as to report CC50 at 48 h for each listed record?
1. CCc1ccc(N(CCCCCC2CCCCC2)c2ccc[n+](C)c2)cc1.[I-]
2. C[n+]1cccc(N(CCCCCC2CCCCC2)c2cccc(C(F)(F)F)c2)c1.[I-]
3. C[n+]1cccc(N(CCCCCC2CCCCC2)c2cccc(Cl)c2)c1.[I-]
4. C[n+]1cc(N(CCCCCC2CCCCC2)c2ccccc2)cc2ccccc21.[I-]
5. C[n+]1cccc(N(CCCCCC2CCCCC2)c2ccc(C#N)cc2)c1.[I-]

1. 10 µg/mL
2. > 10 µg/mL
3. > 10 µg/mL
4. 9.8 µg/mL
5. > 10 µg/mL

---

protocol.notes: Cytotoxicity against african green monkey Vero cells
Format: cell-based
reported.conditions: chlorocebus sabaeus, read-out: TC50 (the source's name)
Kindly state CC50 for each of the entries shown.
Numbers only, in µg/mL.

Look up CC50: C[n+]1c2ccccc2cc2[n-]c3ccccc3c21 [CRYPTOLEPINE]
3.2

Next:
Look up CC50: C[C@@H]1[C@H](O)[C@@H](C)/C=C/C=C/C=C/C=C/C=C/C=C/C=C/[C@H](O[C@@H]2O[C@H](C)[C@@H](O)[C@H](N)[C@@H]2O)C[C@@H]2O[C@](O)(C[C@@H](O)C[C@@H](O)[C@H](O)CC[C@@H](O)C[C@@H](O)CC(=O)O[C@H]1C)C[C@H](O)[C@H]2C(=O)O
7.6

---

protocol.notes: Cytotoxicity against african green monkey Vero cells after 48 hrs by neutral red assay
Assay type: cell-based
reported.conditions: chlorocebus sabaeus, read-out: TC50
Kindly state CC50 at 48 h for each of the entries shown.

Look up CC50 at 48 h: C[n+]1c2ccccc2cc2[nH]c3cccc(Cl)c3c21.[I-]
> 4.7 µg/mL

Look up CC50 at 48 h: C[n+]1cccc(N(CCCCCC2CCCCC2)c2ccc(C(F)(F)F)cc2)c1.[I-]
> 10 µg/mL

Look up CC50 at 48 h: C[n+]1cccc(N(CCCCCC2CCCCC2)c2cccc(C#N)c2)c1.[I-]
> 10 µg/mL

Look up CC50 at 48 h: COc1ccc(N(CCCCCC2CCCCC2)c2ccc[n+](C)c2)cc1.[I-]
> 10 µg/mL

Look up CC50 at 48 h: Clc1cccc(Nc2cc3ccccc3[n+](CCCCCC3CCCCC3)c2)c1.[I-]
> 10 µg/mL

Consider now this further molecule.
Look up CC50 at 48 h: CSc1ccc(N(CCCCCC2CCCCC2)c2ccc[n+](C)c2)cc1.[I-]
> 10 µg/mL
